protocolNotes: Bmi1 luciferase reporter increase in mESCs, primary screen, esBAF inhibitor project, mouse ES cells, Bmi1 luciferase knock-in, single point (AID 602393);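 note: 0% = median of the plate's neutral control wells and 100% = double that signal; a rise in the Bmi1 reporter signal indicates esBAF inhibition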
conditionParameters: 24 h, at 12.5 µM, hits give high values, 100% = twice the neutral-well signal
Out of some 350,000 compounds screened, about 7,000 (2%) were called active. The sample as a whole holds a higher share of actives than the screen did.

# molecule, valueUnit, reporter increase
rows = [
    ("COc1cccc(NC(=O)C(=O)c2cn(CC(=O)N3CCOCC3)c3ccccc23)c1", "%", 20.7),
    ("COc1ccc(NC(=O)N(C)C[C@H]2Oc3ccc(NC(=O)Cc4cn(C)c5ccccc45)cc3CC(=O)N([C@@H](C)CO)C[C@H]2C)cc1", "%", -1.83),
    ("O=C(Cc1ccncc1)NCC[C@@H]1CC[C@H](NC(=O)Nc2ccc(Cl)cc2)[C@@H](CO)O1", "%", -1.9),
    ("O=C(Nc1ccc(F)cc1)C(=O)c1cn(CC(=O)N2CCOCC2)c2ccccc12", "%", 41),
    ("Cc1ccc(CNC(=O)C(=O)c2cn(CC(=O)N3CCOCC3)c3ccccc23)cc1", "%", 20.4),
]

====

protocolNotes: Bmi1 luciferase reporter increase in mESCs, primary screen, esBAF inhibitor project, mouse ES cells, Bmi1 luciferase knock-in, single point (AID 602393);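 note: 0% = median of the plate's neutral control wells and 100% = double that signal; a rise in the Bmi1 reporter signal indicates esBAF inhibition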
conditionParameters: 24 h, at 12.5 µM, 100% = twice the neutral-well signal
The whole screen tested about 350,000 compounds, of which about 7,000 (2%) were called active. Rule as the data show it: active = activation above about 40%; inconclusive = no clear call, values can overlap the other calls; inactive = below that. This is one part of a sample in which actives are shown more often than they occur.
Possible outcomes: class 1 (active), class 0 (inactive)

# molecule, assignedLabel
records = [
    ("O=C(C[C@H]1C=C[C@H](NC(=O)c2cnccn2)[C@@H](CO)O1)NCc1ccccc1F", "class 0"),
    ("FC(F)(F)c1ccnc(Oc2ccc(C3=NCCS3)cc2)c1", "class 1"),
    ("CCCC(=O)Nc1ccc2c(c1)OC[C@@H](C)N(Cc1ccccc1F)C[C@@H](C)[C@H](OC)CN(C)C2=O", "class 0"),
    ("O=C(NCc1ccccc1)C1CCN(C(=O)Cc2ccccc2)CC1", "class 0"),
    ("C[C@@H]1CCCCO[C@@H](CN(C)C(=O)C2CCCCC2)[C@H](C)CN([C@H](C)CO)C(=O)c2cc(NC(=O)CCC(F)(F)F)ccc2O1", "class 0"),
    ("CO[C@@H]1CN(C)C(=O)c2cc(NS(=O)(=O)c3cccc(Cl)c3)ccc2OC[C@@H](C)NC[C@@H]1C", "class 0"),
    ("O=C(C[C@@H]1C=C[C@@H](NS(=O)(=O)c2ccccc2)[C@@H](CO)O1)NCc1ccccc1F", "class 0"),
    ("COC(=O)N(C)C[C@H]1OCc2ccccc2-c2ccccc2C(=O)N([C@@H](C)CO)C[C@H]1C", "class 0"),
    ("CS(=O)(=O)N1CCc2cc(C(=O)Nc3ccccc3)ccc21", "class 1"),
    ("CCOC(=O)N1CCC(NC(=O)CCc2ccccc2)CC1", "class 0"),
    ("Cn1cnc(S(=O)(=O)N2C[C@@H](O)COC[C@@H]3O[C@H](CC(=O)NCc4ccc(F)cc4)CC[C@H]32)c1", "class 0"),
    ("CS(=O)(=O)N1CCc2cc(C(=O)Nc3ccccc3Br)ccc21", "class 0"),
    ("C[C@@H]1CCCCO[C@@H](CN(C)S(=O)(=O)c2cn(C)cn2)[C@@H](C)CN([C@H](C)CO)C(=O)c2cc(NC(=O)c3ccncc3)ccc2O1", "class 0"),
    ("C[C@@H]1CCCCO[C@H](CN(C)Cc2ccc(Cl)c(Cl)c2)[C@H](C)CN([C@@H](C)CO)C(=O)c2cc(NC(=O)C3CCCCC3)ccc2O1", "class 0"),
    ("Cc1ccc(N2CCN(/N=C/c3cccs3)CC2)cc1", "class 0"),
    ("CN(C)C(=O)C[C@@H]1CC[C@@H](NS(=O)(=O)c2ccccc2)[C@H](CO)O1", "class 0"),
    ("Cc1ccccc1Nc1nc(-c2cccnc2)cs1", "class 1"),
    ("CNC[C@H]1Oc2cc(-c3cccnc3)ccc2S(=O)(=O)N([C@@H](C)CO)C[C@H]1C", "class 0"),
]
